Molecular target: RSV fusion glycoprotein (RSV F) on RSV-A2 virus (respiratory syncytial virus, UniProt P03420 26-574)
Experiment: cell-based or functional assay
So I've got a bunch of binders here, and I need their Neutralization IC50 (RSV subtype A) values.

binder="ADI-41362 (antibody, V domains shown) VH: EVQLVESGGGLVQPGGSLRLSCAASGFTFSDHWMNWVRQTPGKGLEWVANIKPDGRETYYVDSVKGRFTISRDNSKKSVYLQMNSLRAEDTAVYYCVRDGHIVVVTAVPPGFFDLWGRGTLVTVSS VL: DIQVTQSPSSLSASVGDRVTITCQASQDLTKYLNWYQQKPGKAPKLLIYDISNLETGVPSRFSGSGFGTEFTLTISSLQPEDVATYYCQQYQNLPYTFGQGTKVEIK" reported_measurement="0.911 µg/mL"

List the reported Neutralization IC50 (RSV subtype A) of each binder below.
1. ADI-41431 (antibody, V domains shown, IgG1; also called Ab 715) VH: QVQLVQSGAEVKKPGASVRVSCTASGYRFFTYGITWVRQAPGQGLEWMGWISAYNGNTKFAQKFQGRLTMTTDAPTSTADMELRGLRSDDTAVYYCAREEGGYHGTGSNNYWGQGTLVTVSS VL: QSVLTQPPSVSAAPGQKVTISCSGSGSNVGGNDVSWYQQFPGTAPKLLIYDNSKRPSGIPDRFSGSKSGTSATLVITGLQTGDEADYYCGTWDSSLSVGVFGTGTKLTVL
2. ADI-41450 (antibody, V domains shown, IgG1) VH: EVQLVESGGGLVKPGGSLRLSCAASGFAFSSYGINWVRQVPGKRLEWVSSISGGSSFINYADSVKGRFTISRDNAGNSVYLQMNSLRAEDTAVYFCARESYGSGSSLNWFDPWGQGTLVTVSS VL: QSVLTQPPSVSGAPGQRVTISCTGSGSNIGAGYDVHWYQQLPGIAPRLVIFGNRNRPSGVPDRISGSKSDTSASLAITGLQAEDEGDYYCQSYDKRLSGWVFGGGTKLTVL
3. ADI-41415 (antibody, V domains shown, IgG1) VH: QVTLKESGPALVKPTQTLTLTCTFSGFSLSTSRTRVSWIRQPPGKALEWLARVDWDDDKFYNPVLKTRLSISKDPSKNQVVLTMTNVDPVDTATYYCVRMAHYGSGGYYVEYFQDWGQGTLVTVSS VL: DIQLTQSPASLSASAGDRVTITCRASQNINRYLNWYQQQSGKAPKLLIYAASILQSGVPSRFSGSGSGTDFTLTITSLQPEDFAIYYCQQSYTTPKYTFGQGTKVEIK
4. ADI-41446 (antibody, V domains shown, IgG1; also called Ab 730) VH: EVQLLESGGGLVQPGGSLRLSCAASGFTYYSYAMNWVRQAPGKGLEWVSAISGGGDNTFYAESVKGRFTISRDNAKNTLYLQMDSLRAEDTAVYYCAKDLQGYTSLYCFDYWGQGTLVTVSS VL: EIVMTQSPATLSLSPGERAALSCRASQSVFNYVAWYQQKPGQAPRLLIYDTSKRATGIPARFSGSGSGTDFTLTISSLEPEDFAVYYCQHRYNWPGLIFGGGTKVEIK
5. ADI-41360 (antibody, V domains shown, IgG1; also called Ab 657) VH: EVQLVESGGGLVQPGGSLRLSCAASGLTFSRYSMNWVRQAPGKGLEWVSYISSTGRRIQYADSVKGRFTISRDDGKNSLYLQMNSLRAEDTAVYYCARDPLNYHDNTAYWSYWGQGTLVTVSS VL: NFMLTQPHSVSESPGKTVTISCTRSSGSIASNYVQWYQQRPGSAPTTVIYEDNQRPSGVPDRFSGSIDSSSNSASLTISGLKTEDEADYYCQSYDSSNPLVFGGGTKLTVL
6. ADI-41409 (antibody, V domains shown) VH: QVQLVQSGAEVKKPGASVKVSCKASGYTFTNYGISWVRQAPGQGLEWMGWISAYNGNTNYAQKFQDRVTMTTDTSTSTAYMELRSLRYDDTAVYYCARDTPGEYASAMFDHWGQGTLVTVSS VL: DIVMTQSPLSLPVTLGQPASISCRSSQSLVYSDGNTYLSWFQQRPGQSPRRLIYKVSNRDSGVPDRFSGSGSGTDFTLKISGVEAEDVGVYYCMQGTHWPPTFGQGTKLEIK
7. ADI-41434 (antibody, V domains shown, IgG1; also called Ab 718) VH: EVQLVESGGGLVQPGRSLRLSCEASGFTFDDYAMHWVRQTPGKGLEWVSGISWNSGSIVYADSVKGRFTISRDNAKNSLYLQMHSLRPEDTALYYCAKDNYTFGNYYYYYGMDVWGQGTTVTVSS VL: EIVLTQSPVTLSVSPGERATLSCRASQNVISNLAWYQQKPGQAPRLLIYGASTRATGIPARFSGSGSGTEFTLTISSLQSEDFAVYYCQQYNNWPLSFGGGTKVEIK
8. ADI-41408 (antibody, V domains shown) VH: QVQLVESGAEVKKPGESLKISCRDSGYSFSSFWIGWVRQMPGKGLEWVGIIYPGDSDIRYSPSFQGRVTISADKSISTAYLQWRSLKASDSAMYYCARSEKLGSFDRWGQGTLVTVSS VL: DIQMTQSPSSLSASVGDRVTITCQANRDISNCLNWYQQRPGKAPELLIYDASYLETGVPSRFTGSGSGTDFTFTISSLQPEDIATYYCQQYDNLLFTFGPGTKVEIK

*A*
1: 2.38 µg/mL; 2: 0.21 µg/mL; 3: > 25 µg/mL; 4: > 25 µg/mL; 5: > 25 µg/mL; 6: 0.29 µg/mL; 7: > 25 µg/mL; 8: > 25 µg/mL
